Target: Cathepsin B (Homo sapiens)
Test: Inhibition of human cathepsin B at 100uM
Calls of active or inactive are those of the source. No cut-off for these calls is given here. Residues, ends and D or L forms follow the SMILES beside them. *: point of attachment. NHBn = c1ccc(CN*)cc1; Bn = c1ccc(C*)cc1
Readout label: inhibition

[[record]]
molecule = "C[C@H](NC(=O)[C@@H](N)Cc1ccc(OCc2ccccc2)cc1)C(=O)N[C@@H](Cc1c[nH]c2ccccc12)C(=O)NCc1ccccc1 (H-Tyr(Bn)-Ala-Trp-NHBn)"
target_desc = "Cathepsin B (Homo sapiens)"
endpoint_result = "Active"

[[record]]
molecule = "COc1ccc2c(c1)CC(C(=O)N[C@H](C(=O)N[C@@H](CCc1ccccc1)C(=O)NCc1ccc(C)cc1)[C@@H](C)O)CC2 (stereo partly drawn)"
target_desc = "Cathepsin B (Homo sapiens)"
endpoint_result = "Active"

[[record]]
molecule = "Cc1ccccc1CCC(=O)N[C@H](C(=O)N[C@@H](CCc1ccccc1)C(=O)NCc1ccccc1Cl)[C@@H](C)O"
target_desc = "Cathepsin B (Homo sapiens)"
endpoint_result = "Active"

